Measured values drawn from patent US20260167619A2 for this set.

Item-by-item account of log10 IC50
target: EGFR(Dell9_T790M_C797S) (aa 669-1210, in house) (Homo sapiens, UniProt P00533, T790M/C797S, form not given); experiment: Biochemical EGFR inhibition assay (TR-FRET), Del19/T790M/C797S mutant; settings: ATP at Km, 15 min pre-incubation, 60 min reaction; read-out: Del_TM_CS (Km ATP) IC50
Sequence (P00533 with tags, fused parts or gaps DEL746-750/T790M/C797S, form open): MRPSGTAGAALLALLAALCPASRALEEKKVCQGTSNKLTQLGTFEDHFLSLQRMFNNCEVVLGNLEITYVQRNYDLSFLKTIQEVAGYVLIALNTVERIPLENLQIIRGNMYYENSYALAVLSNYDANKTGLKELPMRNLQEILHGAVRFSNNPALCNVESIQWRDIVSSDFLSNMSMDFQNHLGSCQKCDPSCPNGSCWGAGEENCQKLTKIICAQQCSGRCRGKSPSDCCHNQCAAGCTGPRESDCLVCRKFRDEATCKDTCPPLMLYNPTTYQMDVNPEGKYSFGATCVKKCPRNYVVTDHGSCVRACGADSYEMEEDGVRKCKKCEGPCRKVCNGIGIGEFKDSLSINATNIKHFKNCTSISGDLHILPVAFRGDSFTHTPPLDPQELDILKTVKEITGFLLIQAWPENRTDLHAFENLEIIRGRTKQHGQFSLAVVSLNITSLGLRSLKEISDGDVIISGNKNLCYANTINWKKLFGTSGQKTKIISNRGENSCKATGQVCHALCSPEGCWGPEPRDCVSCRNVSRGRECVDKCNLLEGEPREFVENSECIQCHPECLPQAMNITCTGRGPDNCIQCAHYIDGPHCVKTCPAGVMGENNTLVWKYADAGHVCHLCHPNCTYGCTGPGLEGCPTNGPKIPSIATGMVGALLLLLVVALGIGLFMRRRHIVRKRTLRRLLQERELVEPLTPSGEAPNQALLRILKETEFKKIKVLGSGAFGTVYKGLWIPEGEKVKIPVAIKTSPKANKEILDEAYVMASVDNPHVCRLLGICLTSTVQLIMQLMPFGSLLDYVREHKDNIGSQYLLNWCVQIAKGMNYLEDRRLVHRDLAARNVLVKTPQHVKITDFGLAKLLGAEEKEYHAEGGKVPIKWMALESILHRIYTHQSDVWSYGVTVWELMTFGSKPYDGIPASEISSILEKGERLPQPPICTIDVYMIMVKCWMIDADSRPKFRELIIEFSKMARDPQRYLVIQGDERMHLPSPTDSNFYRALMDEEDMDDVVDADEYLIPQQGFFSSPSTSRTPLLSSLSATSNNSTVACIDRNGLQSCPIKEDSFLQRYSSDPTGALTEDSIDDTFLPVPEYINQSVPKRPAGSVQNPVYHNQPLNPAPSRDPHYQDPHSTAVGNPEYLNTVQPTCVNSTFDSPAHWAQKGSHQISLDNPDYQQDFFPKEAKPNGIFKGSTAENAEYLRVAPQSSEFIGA
Please interpret these as log10 of IC50 where IC50 is in nM.

Worked cases, log10 IC50 given:
* CN1CCN(C2CCN(c3ccc(Nc4nc(Nc5cccc6c5N(S(C)(=O)=O)CC6)c5cc[nH]c5n4)cc3Cl)CC2)CC1 | -0.07
* COc1cc(N2CCC(N3CCN(C)CC3)CC2)c(C)cc1Nc1nc(Nc2cccc3c2N(S(C)(=O)=O)CC3)c2cc[nH]c2n1 | -0.03
* COc1cc(N2CCC(N3CCN(C)CC3)CC2)c(C)cc1Nc1ncc(Br)c(Nc2cccc3c2N(S(C)(=O)=O)CC3)n1 | -0.44
* CN1CCN(C2CCN(c3ccc(Nc4nc(Nc5cccc6c5N(S(C)(=O)=O)CC6)c5cc[nH]c5n4)nc3)CC2)CC1 | 0.34
* COc1cc(N2C[C@@H](C)N(C)[C@@H](C)C2)c(C)cc1Nc1nc(Nc2cccc3c2N(S(C)(=O)=O)CC3)c2cc[nH]c2n1 | 0.69
* COc1cc(N2CCN(C)[C@@H](C)C2)c(C)cc1Nc1nc(Nc2cccc3c2N(S(C)(=O)=O)CC3)c2cc[nH]c2n1 | 1.00

## Task Find the recorded log10 IC50 belonging to COc1cc(N2CCC(N3CCN(C)CC3)CC2)ccc1Nc1ncc(C#N)c(Nc2cccc3c2N(S(C)(=O)=O)CC3)n1 and report it.
## Result 0.00

## Task Find the recorded log10 IC50 belonging to CN1CCN(C2CCN(c3ccc(Nc4ncc(Br)c(Nc5cccc6c5N(S(C)(=O)=O)CC6)n4)c4c3CCO4)CC2)CC1 and report it.
## Result -0.20

## Task Find the recorded log10 IC50 belonging to CN1CCN(C2CCN(c3ccc(Nc4nc(Nc5cccc6c5N(S(C)(=O)=O)CC6)c5cc[nH]c5n4)cc3)CC2)CC1 and report it.
## Result -0.70

###

Each entry below carries its measured pIC50, system: EGFR (aa668-1210, Invitrogen) (Homo sapiens, UniProt P00533).
Sequence (P00533 668-1210): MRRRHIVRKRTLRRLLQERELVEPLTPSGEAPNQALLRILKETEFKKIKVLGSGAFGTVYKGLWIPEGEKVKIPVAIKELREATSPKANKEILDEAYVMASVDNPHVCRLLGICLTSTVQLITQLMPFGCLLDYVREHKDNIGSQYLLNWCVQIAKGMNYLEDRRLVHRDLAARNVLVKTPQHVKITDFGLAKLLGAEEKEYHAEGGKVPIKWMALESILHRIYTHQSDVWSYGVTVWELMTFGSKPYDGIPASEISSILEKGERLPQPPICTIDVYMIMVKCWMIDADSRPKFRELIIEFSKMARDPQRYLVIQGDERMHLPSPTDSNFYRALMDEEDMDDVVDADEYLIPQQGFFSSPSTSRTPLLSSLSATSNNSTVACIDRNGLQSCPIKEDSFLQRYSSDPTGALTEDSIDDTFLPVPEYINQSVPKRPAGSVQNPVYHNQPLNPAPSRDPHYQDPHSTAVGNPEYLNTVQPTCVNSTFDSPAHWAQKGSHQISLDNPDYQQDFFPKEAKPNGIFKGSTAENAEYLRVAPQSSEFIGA
Scale: pIC50 equals -log10([C]), with [C] in mol/L.

- COc1cc(N2CCC(N3CCN(C)CC3)CC2)ccc1Nc1ncc(Br)c(Nc2cccc3c2N(S(C)(=O)=O)C(C)(C)C3)n1: 7.94
- COc1cc(N2CCC(N3CCN(C)CC3)CC2)ccc1Nc1ncc(Cl)c(Nc2cccc3c2N(S(=O)(=O)C2CC2)CC3)n1: 8.74
- COc1cc(N2CCC(N3CCN(C)C(=O)C3)CC2)ccc1Nc1nc(Nc2cccc3c2N(S(C)(=O)=O)CC3)c2cc[nH]c2n1: 6.86
- COc1cc(Nc2nc(Nc3cccc4c3N(S(C)(=O)=O)CC4)c3cc[nH]c3n2)ccc1N1CCC(N2CCN(C)CC2)CC1: 7.08
- COc1cc(N2CCC3(CC2)CN(C)C3)c(C)cc1Nc1nc(Nc2cccc3c2N(S(C)(=O)=O)CC3)c2cc[nH]c2n1: 7.31

Let us move to another entry and its pIC50.
## Task # value lookup — system EGFR (aa668-1210, Invitrogen) (Homo sapiens, UniProt P00533), readout pIC50, item COc1cc(-c2cnn(CCN(C)C)c2)ccc1Nc1nc(Nc2cccc3c2N(S(C)(=O)=O)CC3)c2cc[nH]c2n1
## Result 5.83
